Test system: M. kansasii (ATCC 12478)
Please assign a class to every record based on measured MIC, with ranges lowest: < 0.5 ng/mL; middle: ≥ 0.5 ng/mL and < 4 ng/mL; highest: ≥ 4 ng/mL

Here's what some known entries look like.
{"MOL_SMILES": "CO[C@H]1/C=C/O[C@@]2(C)Oc3c(C)c(O)c4c(c3C2=O)C2=NC3(CCN(CC(C)C)CC3)NC2=C(NC(=O)/C(C)=C\\C=C\\[C@H](C)[C@H](O)[C@@H](C)[C@@H](O)[C@@H](C)[C@H](OC(=O)N2CCC(N(C)c3ccccc3)CC2)[C@@H]1C)C4=O", "CLASS_NAME": "middle"}
{"MOL_SMILES": "CO[C@H]1/C=C/O[C@@]2(C)Oc3c(C)c(O)c4c(c3C2=O)C2=NC3(CCN(CC(C)C)CC3)NC2=C(NC(=O)/C(C)=C\\C=C\\[C@H](C)[C@H](O)[C@@H](C)[C@@H](O)[C@@H](C)[C@H](OC(=O)N2CCC3(CCN(C)CC3)CC2)[C@@H]1C)C4=O", "CLASS_NAME": "highest"}
{"MOL_SMILES": "CCCCN1CCN(C(=O)O[C@H]2[C@H](C)[C@H](O)[C@H](C)[C@@H](O)[C@@H](C)/C=C/C=C(/C)C(=O)NC3=C4NC5(CCN(CC(C)C)CC5)N=C4c4c(c(O)c(C)c5c4C(=O)[C@@](C)(O/C=C/[C@H](OC)[C@H]2C)O5)C3=O)CC1", "CLASS_NAME": "highest"}

Here is another compound to look at.
**Q:** Which of the defined bands does the recorded MIC of CO[C@H]1/C=C/O[C@@]2(C)Oc3c(C)c(O)c4c(c3C2=O)C2=NC3(CCN(CC(C)C)CC3)NC2=C(NC(=O)/C(C)=C\C=C\[C@H](C)[C@H](O)[C@@H](C)[C@@H](O)[C@@H](C)[C@H](OC(=O)N2CCN(c3ccccc3)CC2)[C@@H]1C)C4=O sit within?
**A:** middle
